System: lizard
Assay: In vitro potency in lizard (Anolis carolinensis) skin bioassay relative to alpha-MSH
Format: functional
measure: Activity
I'd appreciate a reply containing only the number, no unit.

* CCCC[C@H](NC(C)=O)C(=O)N[C@@H](CC(=O)O)C(=O)N[C@@H](Cc1c[nH]cn1)C(=O)N[C@H](Cc1ccccc1)C(=O)N[C@@H](CCCN=C(N)N)C(=O)N[C@@H](Cc1c[nH]c2ccccc12)C(=O)NCC(N)=O | 8

Now look at this one.
Give reported Activity for CCCC[C@H](NC(C)=O)C(=O)N[C@@H](CCC(=O)O)C(=O)N[C@@H](Cc1c[nH]cn1)C(=O)N[C@H](Cc1ccccc1)C(=O)N[C@@H](CCCN=C(N)N)C(=O)N[C@@H](Cc1c[nH]c2ccccc12)C(=O)N[C@@H](CCN)C(N)=O (lizard) 10

* * *

Below, each of the molecules is paired with its reported Activity value.
Test system: lizard
Experiment: In vitro potency in lizard (Anolis carolinensis) skin bioassay relative to alpha-MSH
Assay type: functional
I'd appreciate a reply containing only the number, no unit.

Reference set (3 entries):
• CCCC[C@H](NC(C)=O)C(=O)N[C@@H](CC(=O)O)C(=O)N[C@@H](Cc1c[nH]cn1)C(=O)N[C@H](Cc1ccccc1)C(=O)N[C@@H](CCCN=C(N)N)C(=O)N[C@@H](Cc1c[nH]c2ccccc12)C(=O)N[C@@H](CCN)C(N)=O = 50
• CCCC[C@H](NC(C)=O)C(=O)N[C@@H](CCC(=O)O)C(=O)N[C@@H](Cc1c[nH]cn1)C(=O)N[C@H](Cc1ccccc1)C(=O)N[C@@H](CCCN=C(N)N)C(=O)N[C@@H](Cc1c[nH]c2ccccc12)C(=O)N[C@@H](CCCN)C(N)=O = 8
• CCCC[C@H](NC(C)=O)C(=O)N[C@@H](CC(=O)O)C(=O)N[C@@H](Cc1c[nH]cn1)C(=O)N[C@H](Cc1ccccc1)C(=O)N[C@@H](CCCN=C(N)N)C(=O)N[C@@H](Cc1c[nH]c2ccccc12)C(=O)N[C@@H](CN)C(N)=O = 8

Now look at this one.
Give reported Activity for CCCC[C@H](NC(C)=O)C(=O)N[C@@H](CCC(=O)O)C(=O)N[C@@H](Cc1c[nH]cn1)C(=O)N[C@H](Cc1ccccc1)C(=O)N[C@@H](CCCN=C(N)N)C(=O)N[C@@H](Cc1c[nH]c2ccccc12)C(=O)N[C@@H](CCCCN)C(N)=O (lizard) 8

* * *

Tested on: lizard
Experiment: In vitro potency in lizard (Anolis carolinensis) skin bioassay relative to alpha-MSH
Assay type: functional
Non-standard residues stand in square brackets, D forms with d. Residues, ends and D or L forms follow the SMILES beside them. Nle = CCCC[C@H](N)C(=O)O
measure: Activity
I'd appreciate a reply containing only the number, no unit.

• CCCC[C@H](NC(C)=O)C(=O)N[C@@H](CC(=O)O)C(=O)N[C@@H](Cc1c[nH]cn1)C(=O)N[C@@H](Cc1ccccc1)C(=O)N[C@@H](CCCN=C(N)N)C(=O)N[C@@H](Cc1c[nH]c2ccccc12)C(=O)N[C@@H](CCCCN)C(N)=O = 0.08
• CCCC[C@H](NC(C)=O)C(=O)N[C@@H](CC(=O)O)C(=O)N[C@@H](Cc1c[nH]cn1)C(=O)N[C@H](Cc1ccccc1)C(=O)N[C@@H](CCCN=C(N)N)C(=O)N[C@@H](Cc1c[nH]c2ccccc12)C(=O)N[C@@H](CCCN)C(N)=O = 10
• CCCC[C@H](NC(C)=O)C(=O)N[C@@H](CC(=O)O)C(=O)N[C@@H](Cc1c[nH]cn1)C(=O)N[C@H](Cc1ccccc1)C(=O)N[C@@H](CCCN=C(N)N)C(=O)N[C@@H](Cc1c[nH]c2ccccc12)C(=O)N[C@@H](CCCCN)C(=O)NCC(=O)N1CCC[C@H]1C(=O)N[C@H](C(N)=O)C(C)C (Ac-[Nle]DH[dF]RWKGPV-NH2) = 10

Now look at this one.
Give reported Activity for CCCC[C@H](NC(C)=O)C(=O)N[C@@H](CCC(=O)O)C(=O)N[C@@H](Cc1c[nH]cn1)C(=O)N[C@@H](Cc1ccccc1)C(=O)N[C@@H](CCCN=C(N)N)C(=O)N[C@@H](Cc1c[nH]c2ccccc12)C(=O)N[C@@H](CCCCN)C(N)=O (lizard) 0.08
